# TEST TARGET: GST-Bfl-1 (Homo sapiens)
# Construct: lacking their C-terminal transmembrane domains (about the last 20 amino acids) (“ΔTM”); made in house; host or cells: XL-1 Blue E. coli, pGEX 4T-1
# Sequence (Q16548 1-155 limits assumed): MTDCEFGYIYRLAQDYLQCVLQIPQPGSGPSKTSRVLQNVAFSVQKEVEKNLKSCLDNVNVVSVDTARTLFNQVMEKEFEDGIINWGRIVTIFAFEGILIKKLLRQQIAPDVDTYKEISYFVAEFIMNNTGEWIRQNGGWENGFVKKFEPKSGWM
# ASSAY PROCEDURE: Bfl-1/FITC-Bid BH3 competitive fluorescence polarization assay
# Format: binding
# APPLIED CONDITIONS: primary HTS hits, MLSCN library (PubChem SIDs), Table 5B
Output Satisfied for records whose FRatio is lower than 0.9, Not satisfied for records at or above 0.9.

O=C1CCCC2=C1C(c1ccco1)Nc1ccc3ccccc3c12 (stereo not drawn) [Compound 7975176] :: Satisfied
CC(=O)Nc1ccc(OC(=O)CC2SC(=O)NC2=O)cc1 (stereo not drawn) [Compound 860139] :: Not satisfied
O=C(CSc1ccc(Cl)cc1)c1ccco1 [Compound 3711335] :: Satisfied
CN1CCC2=C(C1)SC1C2C(NCc2ccco2)=Nc2nnnn21 (stereo not drawn) [Compound 864825] :: Not satisfied
O=c1c([N+](=O)[O-])cc(C(F)(F)F)cn1Cc1cccc(Cl)c1 [Compound 17402915] :: Satisfied
CCS(=O)(=O)NCc1ccc2c(c1)cc(C)n2C [Compound 14733498] :: Not satisfied
COC(=O)c1[nH]c2cccc(OC)c2c1NC(=O)CCN1CCC(C(N)=O)CC1 [Compound 863493] :: Satisfied
Cc1csc(N/N=C/c2ccc(O)c([N+](=O)[O-])c2)n1 [Compound 14746238] :: Satisfied
O=C(COC(=O)CC12CC3CC(CC(C3)C1)C2)Nc1ncc(Cl)cc1Cl [Compound 14744137] :: Not satisfied
O=C(COC(=O)c1cccs1)NCc1ccco1 [Compound 3712480] :: Not satisfied
Cc1ccc(OCC(=O)Nc2ccc(N3CCCC3)cc2)cc1C [Compound 7974807] :: Satisfied
CC1CCN(c2ccc(C(=O)O)cc2N)CC1 [Compound 852908] :: Satisfied
O=C1c2ccccc2C(=O)c2c1cccc2N1CCN(CCO)CC1 [Compound 17403435] :: Not satisfied
Cn1c(C(C#N)C2=C(Cl)C(=O)N(c3ccccc3)C2=O)nc2ccccc21 (stereo not drawn) [Compound 3716185] :: Satisfied
Cc1cc(-c2csc(N)n2)c(C)n1C [Compound 14746541] :: Not satisfied
COc1cc(CC(=O)OCC(=O)Nc2ncc(Cl)cc2Cl)cc(OC)c1OC [Compound 3714968] :: Not satisfied
Cc1c[nH]c2cccc(OCC(O)CNC(C)(C)C)c12 (stereo not drawn) [Compound 856249] :: Satisfied
CSc1ccccc1NC(=O)c1noc2c1CCC2 [Compound 4244309] :: Satisfied
O=C(N/N=C1\C(=O)c2cccc3cccc1c23)c1ccc(Cl)cc1 [Compound 16953557] :: Satisfied
Cc1ccc(S(=O)(=O)N2CCCCC2)cc1C(=O)Nc1nc[nH]n1 [Compound 3716232] :: Satisfied
Cc1ccc(OCCC(=O)OCC(=O)Nc2ccc(Cl)cn2)cc1 [Compound 3713376] :: Not satisfied
COCc1cc(C2SCC(=O)Nc3c2c(O)nn3C(C)C)ccc1OC (stereo not drawn) [Compound 4258907] :: Not satisfied
O=C(Nc1ccccc1N1CCOCC1)c1cc(-c2ccco2)nc2ccccc12 [Compound 14744733] :: Satisfied
Cc1ccc(C)n1Cc1ccc(C(=O)O)cc1 [Compound 858431] :: Satisfied
Cc1ccc(-n2nc3ccc(NC(=O)c4ccc5c(c4)OCO5)cc3n2)cc1 [Compound 14732083] :: Satisfied
CN(C)c1cccc(C(=O)OCc2cc(=O)oc3cc(O)ccc23)c1 [Compound 17388495] :: Not satisfied
CN(C)CCSc1nc(N)c2c3c(sc2n1)CN(C)CC3 [Compound 862887] :: Not satisfied
CCCC1=C(C(=O)OCC)C(c2cc(Cl)cc(OC)c2OCC(=O)OCC)NC(=O)N1 (stereo not drawn) [Compound 4262430] :: Not satisfied
Cc1ccc(CNc2ccc3c(c2)OCO3)cc1 [Compound 4257119] :: Not satisfied
N#C/C(C(N)=O)=c1/ccc2c(c1)N1C3=C(CCCC3)CC3CCCCC31N=2 (stereo not drawn) [Compound 856266] :: Satisfied
Cc1ccc(S(=O)(=O)NC(=O)c2cc(C)n(CCCn3ccnc3)c2C)cc1 [Compound 3173759] :: Not satisfied
O=C(Cc1cnn(-c2ccccc2)c1)c1ccc(O)c(O)c1O [Compound 14732615] :: Satisfied

---

# TEST TARGET: GST-Bcl-B (Homo sapiens, UniProt Q9HD36)
# ASSAY PROCEDURE: Bcl-B/FITC-TR3-r8 fluorescence polarization competition (displacement) assay, HTS and dose-response
# APPLIED CONDITIONS: Hill coefficient of Bcl-B dose-response curve
VALUE KIND: Bcl-B H Coefficient

Cc1ccc(C(=O)c2coc3c2C(=O)C(=O)C(Cl)=C3Cl)cc1 [Compound 5169132] :: 1.432
O=C(O)C1Nc2c(C(=O)N3CCCC3)cccc2C2C=CCC12 (stereo not shown) [Compound 5947449] :: 1.761
O=C(O)Cc1c[nH]c2ccc(O)cc12 [Compound 5106705] :: 3.385
CCSc1nc(NN)c2c3c(sc2n1)CN(C)CC3 [Compound 5683054] :: 1.332
COc1cc(N)ccc1-n1c(C)ccc1C [Compound 5953790] :: 2.719
O=C1C=CC(=O)C(/C(=C/NCc2ccccc2)[N+](=O)[O-])=C1 [Compound 5261378] :: 3.214
Cc1ccc(C)n1-c1ccc(C(=O)O)c(Cl)c1 [Compound 5956338] :: 0.9562
CC1=C(C#N)c2nc(N)c(C#N)c(C)c2/C1=C/c1ccc(-c2ccc(C(=O)O)c(Cl)c2)o1 [Compound 6025233] :: 1.206
O=C(O)C1Nc2ccc3ccccc3c2C2C=CCC12 (stereo not shown) [Compound 5657743] :: 3.005
COc1cc(C2Nc3ccc4ccccc4c3C3=C2C(=O)CC(C)(C)C3)c(Br)cc1O (stereo not shown) [Compound 5660965] :: 1.507
COc1ccc(OC)c(C=NNC(=O)C2C=CN(CC(=O)c3ccccc3)C=C2)c1 [Compound 5483976] :: 2.127
Cc1ccc(C)n1-c1ccc(Br)cc1C(=O)O [Compound 5954623] :: 1.233
Cc1cc(C)nc(NC(=N)Nc2ccc(N)cc2)n1 [Compound 5805360] :: 1.878
CCOc1ccc(/C=C(/NC(=O)c2ccc(C)cc2)C(=O)NCCO)cc1 [Compound 5650022] :: 1.428
Cc1ccc(C)n1-c1cc(C(=O)O)cc(C(=O)O)c1 [Compound 5950689] :: 1.032
O=C(O)C1Nc2c(cccc2[N+](=O)[O-])C2C=CCC12 (stereo not shown) [Compound 5665283] :: 1.829

---

Overview of recorded F Ratio for various compounds
# TEST TARGET: GST-Bcl-B (Homo sapiens, UniProt Q9HD36)
# Sequence (Q9HD36 1-182 limits assumed): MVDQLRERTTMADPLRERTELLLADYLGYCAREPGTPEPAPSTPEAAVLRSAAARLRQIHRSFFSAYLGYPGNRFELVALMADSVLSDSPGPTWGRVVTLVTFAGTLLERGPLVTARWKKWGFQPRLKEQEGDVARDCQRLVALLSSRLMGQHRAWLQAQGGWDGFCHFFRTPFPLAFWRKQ
# ASSAY PROCEDURE: Bcl-B/FITC-TR3-r8 fluorescence polarization competition (displacement) assay, HTS and dose-response
# APPLIED CONDITIONS: Table 7, NCI Mechanistic library; Binding Assay, FP; Concentration 0.02 uM
VALUE KIND: F Ratio

O=[N+]([O-])c1cccc2c(/N=N/c3ccc4ccccc4c3O)c(O)cc(S(=O)(=O)O)c12 [Compound 85561] :: 0.06489
COc1ccc2c(c1)-c1nn(CCCN(C)C)c3ccc([N+](=O)[O-])c(c13)N2 [Compound 627168] :: 0.1807
N=C(N)NCCCS(=O)(=O)Nc1ccc(Nc2c3ccccc3nc3cc([N+](=O)[O-])ccc23)cc1 [Compound 177365] :: 0.439
NC(=O)OCC1=C(COC(N)=O)C(=O)c2c(O)ccc(O)c2C1=O [Compound 224124] :: 1.1456

---

# TEST TARGET: GST-Hsp70 (Homo sapiens, UniProt P0DMV8)
# Sequence (P0DMV8 whole entry): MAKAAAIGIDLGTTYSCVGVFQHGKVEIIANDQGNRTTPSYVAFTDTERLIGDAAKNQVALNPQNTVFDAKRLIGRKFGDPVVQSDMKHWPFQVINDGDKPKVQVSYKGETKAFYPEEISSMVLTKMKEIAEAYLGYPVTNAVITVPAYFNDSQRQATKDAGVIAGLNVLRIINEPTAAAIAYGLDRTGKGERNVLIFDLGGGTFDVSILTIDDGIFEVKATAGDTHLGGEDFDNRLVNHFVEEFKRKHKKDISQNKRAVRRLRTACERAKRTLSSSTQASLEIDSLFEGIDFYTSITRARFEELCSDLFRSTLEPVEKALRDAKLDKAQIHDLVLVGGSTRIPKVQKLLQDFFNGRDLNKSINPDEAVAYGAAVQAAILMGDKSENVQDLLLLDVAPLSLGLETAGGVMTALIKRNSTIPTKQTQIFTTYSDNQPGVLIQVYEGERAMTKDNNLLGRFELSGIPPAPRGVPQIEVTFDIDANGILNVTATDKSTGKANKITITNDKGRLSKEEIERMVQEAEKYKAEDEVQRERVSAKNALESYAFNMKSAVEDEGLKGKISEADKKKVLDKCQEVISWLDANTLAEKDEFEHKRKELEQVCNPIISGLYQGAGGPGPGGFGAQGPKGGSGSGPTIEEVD
# ASSAY PROCEDURE: FITC-ATP/GST-Hsp70 fluorescence polarization counter-screen
# Assay type: binding
# APPLIED CONDITIONS: HSP/FITC-ATP counter screen
VALUE KIND: HSP70 IC50 (Hill)

Nc1ccc(Oc2ccc(N)c(N)c2)cc1N [Compound 5152592] :: High
Cc1ccc(C)n1-c1ccc(Cl)cc1C(=O)O [Compound 5950160] :: high
CC1=C(C#N)c2nc(N)c(C#N)c(C)c2/C1=C/c1ccc(-c2ccc(C(=O)O)c(Cl)c2)o1 [Compound 6025233] :: high
Clc1ccc(C2C=C(c3ccccc3)Nc3ncnn32)cc1 (stereo not shown) [Compound 5223675] :: high
